Kindly supply the reported composite z-score values for the records listed here.
System: Wnt5a (protein binding on small-molecule microarray)
Assay: Wnt5a binders on small-molecule microarray, primary screen, biophysical, 635/667 nm fluorescence (AID 1142);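 further: fluorescence read at 667 nm with signal to noise per printed feature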
Settings: 635 nm fluorescence, higher = more signal
One number for each entry.

// known answers, use as guide
compound	composite z-score
CCCCC=C[C@@H](NC(=O)c1ccc(-c2ccccc2)cc1)c1ccccc1	-0.0312
O=C1O[C@@H](c2ccccc2)[C@@H](c2ccccc2)N2[C@@H](c3ccc(O)cc3)[C@]3(C(=O)Nc4ccc(C#CC5(O)CCCCCC5)cc43)[C@@H](C(=O)NC[C@H](O)c3ccccc3)[C@H]12	0.0895
CCCCC(O)C1C=CC2C(=O)N(c3ccccc3)C(=O)C2N1Nc1ccc(C(C)C)cc1 (configuration not stated)	0.261
CCC[C@@H]1C[C@@]1(CCC)[C@@H](NC(=O)OCc1ccccc1)c1ccc(-c2ccccc2)cc1	-0.189
CC(C)N1CC=CC23O[C@@H]4C=CCOC(=O)[C@@H]4[C@H]2C(=O)N(CCCO)[C@@H]3C1=O (some centres not stated)	-0.26

Record composite z-score per entry; entries follow.
1. C=CCC(OC(C)=O)[C@@H]1[C@@H](N(Cc2cccc3ccccc23)C(=O)Cc2ccc(OC)cc2)c2cc(OCCCO)ccc2N1C(=O)c1ccc2ccccc2n1 (some centres not stated)
2. CO[C@]12C=C(Br)[C@@H](C[C@@H]1c1cccc(C)c1)[C@@]1(CO1)C2=O

### Response
[0.216, -0.161]

---

Kindly supply the reported z-score values for the records listed here.
Assay: HepG2 liver cancer cell viability effects, profiling panel, resazurin fluorescence, 24 h, PK04 Diversity Set (AID 1172); further: test concentration not given here
Settings: higher = more signal
Answers are plain numbers.

// known answers, use as guide
compound	measurement
CC(C)C[C@@H]1NC(=O)[C@@H]2C[C@H](C(=O)NCCCCCN)[C@H](c3ccc(O)cc3)N2C1=O	-1.3
COCCOC(=O)N1C(=O)[C@@]2(c3cc(C#Cc4ccc(OC)cc4)ccc31)[C@H](C(=O)Nc1nc3ccccc3s1)[C@H]1C(=O)O[C@H](c3ccccc3)[C@H](c3ccccc3)N1[C@@H]2c1ccc(OCCO)cc1	-0.635

Record z-score per entry; entries follow.
1. COc1cc(CO)cc(I)c1O[C@H]1C=C(C(=O)NCCO)C[C@@H](NCc2ccc(F)cc2)[C@@H]1O
2. C=CCC(OC(C)=O)[C@@H]1[C@@H](N(Cc2ccc(-c3ccccc3)cc2)C(=O)Cc2ccc(F)cc2)c2cc(OCCCO)ccc2N1C(=O)Cc1ccc(OC)cc1 (some centres not stated)
3. CC(C)C(=C=CC[C@H](O)c1ccc(OCCO)cc1)C[C@H](O)c1ccccn1
4. COC(=O)[C@@]1(Cc2ccc(F)cc2)[C@H]2c3cc(C(=O)N(C)C)n(Cc4cc(F)cc5c4OCOC5)c3C[C@H]2CN1C(=O)c1ccccc1

### Response
[-0.205, -0.939, 0.748, -0.933]

### Prompt Return the recorded z-score value; entry: NC(N)=NCCCn1cc(CNC(=O)[C@@H](N)Cc2ccccc2)nn1
### Response -0.686

---

Assay: small-molecule microarray binders of probe aLefty2, primary screen, biochemical, biotinylated probe, 635/667 nm fluorescence (AID 1094);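 further: score merges spot fluorescence near 667 nm with spot signal-to-noise ratio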
Settings: higher = more signal
Classify as follows. Reported composite z-score greater than or equal to -0.08: MET. Reported composite z-score below: NOT MET.

Worked examples, 5 compounds total:
compound	assigned_category
O=C(NCCCCCNC(=O)/C(Cc1ccccc1)=N/O)OCc1ccccc1	NOT MET
O=C1OCC=C[C@H]2OC34C=CCN(Cc5ccccc5)C(=O)[C@H]3N(CCCCCCO)C(=O)[C@@H]4[C@@H]12 (stereo partly drawn)	MET
C=CCOC(=O)[C@H]1[C@@H]2C(=O)O[C@@H](c3ccccc3)[C@@H](c3ccccc3)N2[C@@H](c2ccc(OCCOC(=O)[C@@H]3C[C@@H]4C(=O)N[C@@H](CCCCN(C)C)C(=O)N4[C@@H]3c3ccc(O)cc3)cc2)[C@]12C(=O)Nc1ccccc12	MET
CO[C@H]1O[C@H](CO)[C@@H](OC(=O)Nc2ccc3c(c2)OCO3)[C@H](OC(=O)c2cc3ccccc3[nH]2)[C@H]1OC(=O)c1cc2ccccc2[nH]1	MET
Cc1ccccc1C(O)C1C=CC2C(=O)N(C)C(=O)C2N1N(c1ccccc1)c1ccccc1 (stereo not drawn)	MET

### Prompt Say whether CO[C@]12C=C(Br)[C@@H](C[C@@H]1c1cccc(C)c1)[C@@]1(CO1)C2=O shows composite z-score of -0.08 or more.
### Response NOT MET

---

Kindly supply the reported composite z-score values for the records listed here.
Assay: binders of probe aFGF10 on microarray, primary screen, stem cell growth factor project, biochemical, small-molecule microarray, fluorescence 635/667 (AID 1071);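 further: score merges 667 nm spot intensity and signal to noise from triplicate slides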
Conditions: higher = more signal
One number for each entry.

Record composite z-score per entry; entries follow.
1. COCCOC(=O)N1C(=O)[C@@]2(c3cc(C#CC4=CCCCC4)ccc31)[C@H](C(N)=O)[C@H]1C(=O)O[C@H](c3ccccc3)[C@H](c3ccccc3)N1[C@@H]2c1ccccc1OCCO
2. C=CCC(OC(C)=O)[C@@H]1[C@@H](N(Cc2cc3ccccc3o2)C(=O)Cc2ccc(F)cc2)c2cc(OCCCO)ccc2N1C(=O)c1ccc2ccccc2c1 (stereo not given in full)
3. CCOC(=O)C1=CC[C@@H](c2ccc(OCc3ccccc3)c(OC)c2)N(S(=O)(=O)c2ccc(C)cc2)[C@H]1c1ccc(SC)cc1
4. C[N+](C)(C)CCCC[C@@H]1NC(=O)[C@H]2C[C@@H](C(=O)NCCCCCCN)[C@@H](c3ccc(O)cc3)N2C1=O
5. C=CCOC(=O)[C@H]1[C@@H]2C(=O)O[C@@H](c3ccccc3)[C@@H](c3ccccc3)N2[C@@H](c2ccc(OCCOC(=O)[C@@H]3C[C@@H]4C(=O)N[C@@H](CCCCN(C)C)C(=O)N4[C@@H]3c3ccc(O)cc3)cc2)[C@]12C(=O)Nc1ccccc12
6. C=CCN1Cc2ccccc2[C@H]2OC(c3ccc(OCCCO)cc3)=N[C@@]2(CC=C)C1=O
7. O=C(CS)NCCCCCCNC(=O)[C@H]1C[C@H]2C(=O)N[C@@H](Cc3ccccc3)C(=O)N2[C@H]1c1ccc(O)cc1
8. C=CCNC(=O)[C@H]1[C@@H]2C(=O)O[C@@H](c3ccccc3)[C@@H](c3ccccc3)N2[C@@H](c2ccc(O)cc2)[C@]12C(=O)Nc1ccc(C#CC3(O)CCCCCC3)cc12

### Response
1: 0.999; 2: -0.121; 3: 1.02; 4: 0.575; 5: 0.389; 6: -0.177; 7: 0.836; 8: 0.254

---

Kindly supply the reported composite z-score values for the records listed here.
Target: Left-right determination factor 2 (Homo sapiens) (UniProt O00292)
Sequence (O00292 whole entry, looked up): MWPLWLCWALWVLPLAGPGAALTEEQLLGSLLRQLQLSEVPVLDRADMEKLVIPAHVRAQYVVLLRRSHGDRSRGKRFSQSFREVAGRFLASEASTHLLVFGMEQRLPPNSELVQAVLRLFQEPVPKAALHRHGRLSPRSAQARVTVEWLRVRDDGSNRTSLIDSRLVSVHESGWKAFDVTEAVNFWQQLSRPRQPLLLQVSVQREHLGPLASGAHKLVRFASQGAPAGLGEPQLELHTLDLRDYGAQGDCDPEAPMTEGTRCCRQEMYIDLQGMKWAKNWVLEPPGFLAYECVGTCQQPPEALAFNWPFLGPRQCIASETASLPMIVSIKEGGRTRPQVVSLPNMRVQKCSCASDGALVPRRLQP
Assay: LEFTY2 binders on small-molecule microarrays, primary screen, biochemical, small-molecule microarray, 635 nm fluorescence scan (AID 1110)
Details: LEFTY2 binding, higher = more signal
One number for each entry.

// known answers, use as guide
compound	measurement_name	measurement
Cc1cc(C)c(C(O)C2C=CC3C(=O)NC(=O)C3N2Nc2ccc(Cl)cc2Cl)c(C)c1 (centres undefined)	composite z-score	0.105
COC(=O)Cn1c(C(=O)N(C)C)cc2c1C[C@H]1CN(C(=O)c3ccccc3)[C@@](Cc3ccc(F)cc3)(C(=O)OC)[C@@H]21	composite z-score	0.484
C=CCC(OC(C)=O)[C@@H]1[C@@H](N(Cc2ccc(-c3cccc(C(F)(F)F)c3)o2)C(=O)c2ccc(-c3ccccc3)cc2)c2cc(OCCCO)ccc2N1C(=O)c1ccc2ccccc2n1 (some centres undefined)	composite z-score	-0.122
OCCCC1=CC(c2ccc(CN3CCCC3)cc2)N(Cc2sc3ccccc3c2Cl)CC1 (centres undefined)	composite z-score	0.758
O=C1O[C@H](c2ccccc2)[C@H](c2ccccc2)N2[C@H]1[C@@H](C(=O)Nc1nc3ccccc3s1)[C@]1(C(=O)Nc3ccc(C#CC4(O)CCCCCC4)cc31)[C@H]2c1ccccc1OCCO	composite z-score	0.561

Record composite z-score per entry; entries follow.
1. COC(=O)c1c2oc(c1C(=O)OC)C(=O)N(Cc1ccccc1)Cc1cn(nn1)C[C@H](Cc1ccccc1)NC(=O)N[C@H](CO)CC2
2. CCCC[C@@H]1C[C@H]1[C@@H](NC(=O)c1ccccc1)c1ccc(C(F)(F)F)cc1
3. COC(=O)[C@@]1(Cc2ccc(F)cc2)[C@H]2c3cc(C(=O)N(C)C)n(CCc4ccc(O)c(OC)c4)c3C[C@H]2CN1C(=O)c1ccccc1
4. COCC1=C2[C@@H](CCc3ccccc3)OB(O)C[C@@H]2[C@@H]2C(=O)C=CC(=O)[C@@H]2C1
5. COc1ccc(CN(C2=CC[C@@]3(C(N)=O)C(=O)C(Cl)=C(Cl)C(=O)[C@@]3(C#N)C2)S(=O)(=O)c2ccc(Br)cc2)cc1

### Response
1. 0.269
2. -1.06
3. 0.543
4. 0.363
5. -0.885

Record composite z-score per entry; entries follow.
1. C[C@@H]1NC(=O)[C@@]23C(=O)N[C@@H](Cc4ccccc4)C2[C@H](C)[C@@]2(C)O[C@H]2C3/C=C/C/C=C\CNC(=O)[C@@H]2CCCN2C1=O (some centres undefined)
2. CCOc1cc(C(O)C2C=CC3C(=O)N(c4ccccc4)C(=O)C3N2Nc2ccc(C#N)cc2)ccc1O (centres undefined)
3. CCCNC(=O)[C@@]1(c2ccc([N+](=O)[O-])cc2)CC(=O)N(C2CCCCC2)[C@@H]1c1ccc(CO)cc1
4. CC[C@H]1C2=C3C(CC[C@H]4C(OCc5ccc(F)cc5C(F)(F)F)OC[C@](C)([C@@H]34)N(C(=O)OC(C)(C)C)C2)C(COC)C1COC (some centres undefined)

### Response
[-0.301, -0.0669, 0.357, -0.696]
